assay: soluble on expression in E. coli; label from the status in PepcDB or PDB records

{"polymerSequence": "MGSDKIHHHHHHAQTDPSQLKKEGSDAFNAKNYPVAYAKFSEYLKQTNNQDSAIAYYCGMAADEVKKYAEAVTFFDIAIQKKFNIGNAYARKALALDAMKKTDEYVATLEEGLKVDPDNKTMIKNYGLHYLKAGIAAQKAGKVEEAEECFKKVIPLDHKTYKTNALYSLGVLCYNDGANILKKAAPLANSDADKYAAEKEKADGRFKEAIGYLEEATKVSPEDTKSKTMLSQVQAAMK", "soluble on expression in E. coli": "not soluble"}
{"polymerSequence": "KNVLILGAGGQIARHVINQLADKQTIKQTLFARQPAKIHKPYPTNSKIIMGDVLNHAALKQAMQGQDVVYANLTGEDLDIQANSVIAAMKACDVKRLIFVLSLGIYNEVPGKFGEWNNAVIGEPLKPFRRAADAIEASGLEYTILRPAWLTDEDIIDYELTSRNEPFKGTIVSRKSVAALITDIINKPEKHIGENIGINQPGTDG", "soluble on expression in E. coli": "not soluble"}
{"polymerSequence": "MLTNQELTAKVKEISLTYFKQSFDHEAKWNQRLRTTGGRFFPKDLHLDFNPKMAELKDFEGVILHELTHYHLYRSKRGYKHRDADFKRLLSQVGGLRYAPSVIDKKIKYYYSCQNCGQLYPRQRKIDTKKYRCGKCRGKLILKTSGNLEHHHHHH", "soluble on expression in E. coli": "soluble"}
{"polymerSequence": "MRAEDLFNDPKSYKRWYELHSKLYENERNVVRSFNLKDCLDVGSGPDIFHEEIGGRIVALDISLLMLKESKSDEKVLADALHLPFRDNSFKCVFSSVTVCFIEDVKGFIREMARITKERAIICFIARDSPWGEYYENLGKSGHKYYSHARFISRREFYVIINDFMKISRIRSTLKKMSETEIDGVYNDDSGSFICVEAIPMKPEPLSLSLNRHSGADPADPIS", "soluble on expression in E. coli": "not soluble"}
{"polymerSequence": "GPGSAPSKDGHVFEMSRPEQAAYGLAMSLVRWHAFNRFCANCGTATDPTRDVGFSRFCPKCRKQHFPQLVPAVLVAVLDGKGNVILSQRRKESKVLTLLSGFVLHGESAEETVRREVEEESGARVSKVRYIGSQPWPYPYLMMMCYYAVADASPSLVVDASELERVMWVSKQDVRRALEGQHSDMELRGPGTTPYAMLKPWVDGKVDDRGRITKPQSQL", "soluble on expression in E. coli": "not soluble"}
{"polymerSequence": "GPGSMVLIECKRLPKDEYSKDYDVFLVSMPGSTNIGEATDALQKMRNTRVRIKWMCAAAKQLAKDFCSDEQKHHLLGAVEDAERYMAIERAENRQLCSQEDLDAHIAAFKGSAMILFPAECSGTDAVKRLALVLDDENTTDLERSKAHRLLSIIDDGAATEDILQGPAVMWWSGKPLDRNADFTKYVGKNEKTKITMKLAAKDAPPPPREPAVDAKTQSEMMAFYFKKQEEMKKLIEDEDLTYGNSAWADPRGLRSQLHGFDGVKYKPG", "soluble on expression in E. coli": "soluble"}
{"polymerSequence": "MGSDKIHHHHHHMVLALNYNMHGVNIRSENAAKPHTMPSRYLCEYIRSIEKNGHALDFGCGKLRYSDELISKFDEVTFLDSKRQLEREQIIRGIKTKIIDYVPRYYKNANTVAFEDVDKIIGGYDFILCSNVLSAVPCRDTIDKIVLSIKRLLKSGGETLIVNQYKSSYFKKYETGRKHLYGYIYKNSKSVSYYGLLDELAVQEICSSHGLEILKSWSKAGSSYVTVGSCNAI", "soluble on expression in E. coli": "not soluble"}
{"polymerSequence": "MPPPTNQFKHDNIPLQTQGCEINVLCVRNPRARRIKLSVDERGVRLILPPCADLDAGTRFLLEQRAWIETQMARYASGTAATIPLRRGETTALPLRDQQLPLHWHESRYTRLELDAHGLQFYITTHTNDNTLRHTLREFYEVQARVDISDWLRKYLPGLPRPPTRVRLKPMSSQWGSLATAGHMALDLALVLGRPSAFEYVVVHELCHLIQANHSPAFWREVECRFPLWREERDYFHLKGRILKAQLRRLLQTELEHHHHHH", "soluble on expression in E. coli": "not soluble"}
{"polymerSequence": "MDTEMLIDKYQLNDSEAAVLRFMDKNRDCLKSLGIREVAKASYVSTTAIINMAKKIGYSGYSELVFAYGNKHSSISFPENFSNEEKDEFIRLLSRYREKRIMVLGSGFSQNIANHFSEMLNLYGFRATANSHLEFLRENVEKDVLIFIVSNSGDTLRLAELVKLAKNHHIDLIAFVGEKKSKIGQLATLTISTETYNPQVVSEYQPNLFFGTALNQFELLLSEALKSIFI", "soluble on expression in E. coli": "not soluble"}
{"polymerSequence": "EFSMEDLIPLVNRLQDAFSAIGQNADLDLPQIAVVGGQSAGKSSVLENFVGRDFLPRGSGIVTRRPLVLQLVNATTEYAEFLHCKGKKFTDFEEVRLEIEAETDRVTGTNKGISPVPINLRVYSPHVLNLTLVDLPGMTKVPVGDQPPDIEFQIRDMLMQFVTKENCLILAVSPANSDLANSDALKVAKEVDPQGQRTIGVITKLDLMDEGTDARDVLENKLLPLRRGYIGVVNRSQKDIDGKKDITAALAAERKFFLSHPSYRHLADRMGTPYLQKVLNQQLTNHIRDTLPGLRNKLQSQLLSIEKEVEEYKNFRPDKHGTDSRVDEMLRMYHALKEALSIIGNIN", "soluble on expression in E. coli": "soluble"}
{"polymerSequence": "ESSRSAMMYIQELRSGLRDMHLLSCLESLRVSLNNNPVSWVQTFGAEGLASLLDILKRLHDEKEETSGNYDSRNQHEIIRCLKAFMNNKFGIKTMLETEEGILLLVRAMDPAVPNMMIDAAKLLSALCILPQPEDMNERVLEAMTERAEMDEVERFQPLLDGLKSGTSIALKVGCLQLINALITPAEELDFRVHIRSELMRLGLHQVLQELREIENEDMKVQLCVFDEQGDEDFFDLKGRLDDIRMEMDDFGEVFQIILNTVKDSKAEPHFLSILQHLLLVRNDYEARPQYYKLIEECVSQIVLHKNGTDPDFKCRHLQIDIERLVDQMIDKTKVEKSEAKATELEKKLDSELTARHELQVEMKKMENDFEQKLQDLQGEKDALDS", "soluble on expression in E. coli": "soluble"}

* * *

experiment: soluble on expression in E. coli; label from the status in PepcDB or PDB records
measure: soluble on expression in E. coli

{"polymerSequence": "DLTGKSIVGYRISGGLDIPIGYGLYVNPSLAFHSKGMKTNLEGVALGALGLNSSLKVKTHYIEIPVHLGYRLSLLNLVSVAVQAGPYFSYAIKGDGTVVRKDGQETTFDIYKDGLKEMINAKRFDVGLGAAAMVGYSNFYLLIGADFGLINTVKDIKPETKNLEATLKNTSFHVGLGIRL", "measure": "soluble on expression in E. coli", "result": "not soluble"}
{"polymerSequence": "MGSDKIHHHHHHMQNLSPTQREILLALTDLYNRQKRMIKSKEVADIIGKDEGTVRNIILSLKVLGLVESKPGPNGGYMPTLKAYEIINNPTLTPILDKLNLYKGMIETDIKVENIEIIDITNPSANRVLLKVEGDLRKLKIGDAVRLGPTPYSRLVIEGLILHLDENSKEIVVDVKRMISIPKEKVKNLISKKLIALKPETSLREASMIFYKEAIRGAPVINQDEKVVGILTTADIIKAFFEGNYTAKVSDYMKTNVISINENEDLLDAIRKMIIYNVGRLLVLDSNNKAVGIVTRTDILRSIAGLEGLWTT", "measure": "soluble on expression in E. coli", "result": "not soluble"}
{"polymerSequence": "MGSDKIHHHHHHMSIMNFSEYQTQALKTDQIPAVEGTELMIPLLGLVGEVGSLMTEYKKHLRDGDAHKLFKEGIAEELGDMLWYISNLASKFNLNLEEIAEDNLRKCRDRWGWRDSAQIEDKGTTYIFDNDFPENESLPRQFEVEITEISKDNSIKMKAFINKKQVGNDLTDNSYTSDGYRFHDVFHFSYAAVLGWSAVTRSMLKRKRKSNSSIDEVEDGGRAIAIEEGISALIFSYAKNHGFLERVSTLDYQILKTIKNMTCHLEVSQCSLGDWEKAILMGYDVWRQVEKNRGGRVVLDLDARLITYLKKSSLCSASVEIKH", "measure": "soluble on expression in E. coli", "result": "not soluble"}

* * *

assay: soluble on expression in E. coli; label from the status in PepcDB or PDB records
measure: soluble on expression in E. coli

{"polymerSequence": "MTAEVTAADAEVLLAQPRGFCAGVDRAIDIVERALELHGAPIYVRHEIVHNRYVVEDLRGKGAVFIDELDQAPAGAIVVFSAHGVSQAVRGEAEARGLRVFDATCPLVTKVHIEVARMRAAGREIVMIGHKGHPEVEGTLGQAQGGMYLVETVEDVAALQVSDPGNLAYVTQTTLSVDDAAAVAGALKARFPGIVEPKKSDICYATQNRQDAVKLLAPECDLVLVVGSTNSSNSNRLREVAERKGVAAYLIDGAHAIDPAWLQGRRSIGITAGASAPEVLVQQVVERVRELGAVSVRTMPGLEESVAFPLPKGLSRKIAQTESLEAAALEHHHHHH", "result": "not soluble"}
{"polymerSequence": "MNEDNSQNSEGPSRKSFFERLSQLFQGEPKDRQELVDVIRDSEVNDLIDHDTRDMLEGVMEIAEMRVRDIMIPRSQMVTIDRTHNLDALVAIMTDAQHSRYPVISEDKDHVEGILLAKDLLKYLGSNCAPFNIQEVIRPAVVVPESKRVDRLLKEFREERYHMAIVVDEFGGVSGLVTIEDILEEIVGDIEDEFDDEEQKDIRQLSKHTFSVKALTTIEDFNHTFGTKFSDEEVDTVGGLVMTAFGHLPARGEVVDIAGYNFKVTAADSRRVVALQVTVPDLEALSHVAEE", "result": "not soluble"}

Reference for the values: the DeepSol protein solubility set
